B1: library; a variant is named by its letters at N, in order (parent)
chain: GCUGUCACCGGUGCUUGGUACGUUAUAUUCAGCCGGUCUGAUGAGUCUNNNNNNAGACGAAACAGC

variants of: B1; test: normalized RNA/DNA level with ligand (relative to sTRSVctl = 100) (log10 (% of sTRSVctl)); HEK293T overexpressing SLC46A1; ligand concentration (+) RNA-Seq: 6 mM; higher = less ribozyme self-cleavage, higher mRNA level; conditions: with (6R,S)-folinic acid; ligand present: yes
Reported normalized RNA/DNA level with ligand (log10) values for a set of variants
experimentalEndpoint: normalized RNA/DNA level with ligand (log10)

>  <sequenceInput>
GCUGUCACCGGUGCUUGGUACGUUAUAUUCAGCCGGUCUGAUGAGUCUGCCCAAAGACGAAACAGC

>  <dataValue>
2.02

$$$$
>  <sequenceInput>
GCUGUCACCGGUGCUUGGUACGUUAUAUUCAGCCGGUCUGAUGAGUCUUCCCCCAGACGAAACAGC

>  <dataValue>
2.06

$$$$
>  <sequenceInput>
GCUGUCACCGGUGCUUGGUACGUUAUAUUCAGCCGGUCUGAUGAGUCUUGCACCAGACGAAACAGC

>  <dataValue>
1.98

$$$$
>  <sequenceInput>
GCUGUCACCGGUGCUUGGUACGUUAUAUUCAGCCGGUCUGAUGAGUCUUUGGAUAGACGAAACAGC

>  <dataValue>
2.02

$$$$
>  <sequenceInput>
GCUGUCACCGGUGCUUGGUACGUUAUAUUCAGCCGGUCUGAUGAGUCUAUUAUCAGACGAAACAGC

>  <dataValue>
2.03

$$$$
>  <sequenceInput>
GCUGUCACCGGUGCUUGGUACGUUAUAUUCAGCCGGUCUGAUGAGUCUUUCAUGAGACGAAACAGC

>  <dataValue>
1.97

$$$$
>  <sequenceInput>
GCUGUCACCGGUGCUUGGUACGUUAUAUUCAGCCGGUCUGAUGAGUCUCGUUAGAGACGAAACAGC

>  <dataValue>
2.03

$$$$
>  <sequenceInput>
GCUGUCACCGGUGCUUGGUACGUUAUAUUCAGCCGGUCUGAUGAGUCUGCAAUGAGACGAAACAGC

>  <dataValue>
2.03

$$$$
>  <sequenceInput>
GCUGUCACCGGUGCUUGGUACGUUAUAUUCAGCCGGUCUGAUGAGUCUGCAAUCAGACGAAACAGC

>  <dataValue>
2.03

$$$$
>  <sequenceInput>
GCUGUCACCGGUGCUUGGUACGUUAUAUUCAGCCGGUCUGAUGAGUCUGUGCUAAGACGAAACAGC

>  <dataValue>
1.98

$$$$
>  <sequenceInput>
GCUGUCACCGGUGCUUGGUACGUUAUAUUCAGCCGGUCUGAUGAGUCUUCAGUGAGACGAAACAGC

>  <dataValue>
1.97

$$$$
>  <sequenceInput>
GCUGUCACCGGUGCUUGGUACGUUAUAUUCAGCCGGUCUGAUGAGUCUCCAGAAAGACGAAACAGC

>  <dataValue>
1.98

$$$$
>  <sequenceInput>
GCUGUCACCGGUGCUUGGUACGUUAUAUUCAGCCGGUCUGAUGAGUCUUACCGCAGACGAAACAGC

>  <dataValue>
1.99

$$$$
>  <sequenceInput>
GCUGUCACCGGUGCUUGGUACGUUAUAUUCAGCCGGUCUGAUGAGUCUAGCCUAAGACGAAACAGC

>  <dataValue>
2.01

$$$$
>  <sequenceInput>
GCUGUCACCGGUGCUUGGUACGUUAUAUUCAGCCGGUCUGAUGAGUCUUAGUCUAGACGAAACAGC

>  <dataValue>
2.02

$$$$
>  <sequenceInput>
GCUGUCACCGGUGCUUGGUACGUUAUAUUCAGCCGGUCUGAUGAGUCUUGCUGAAGACGAAACAGC

>  <dataValue>
2.05

$$$$
>  <sequenceInput>
GCUGUCACCGGUGCUUGGUACGUUAUAUUCAGCCGGUCUGAUGAGUCUGGGGCUAGACGAAACAGC

>  <dataValue>
2.05

$$$$
>  <sequenceInput>
GCUGUCACCGGUGCUUGGUACGUUAUAUUCAGCCGGUCUGAUGAGUCUAGGAAUAGACGAAACAGC

>  <dataValue>
2

$$$$
>  <sequenceInput>
GCUGUCACCGGUGCUUGGUACGUUAUAUUCAGCCGGUCUGAUGAGUCUCGAGCAAGACGAAACAGC

>  <dataValue>
2.02

$$$$
>  <sequenceInput>
GCUGUCACCGGUGCUUGGUACGUUAUAUUCAGCCGGUCUGAUGAGUCUGACGAAAGACGAAACAGC

>  <dataValue>
2

$$$$
>  <sequenceInput>
GCUGUCACCGGUGCUUGGUACGUUAUAUUCAGCCGGUCUGAUGAGUCUCUUCUAAGACGAAACAGC

>  <dataValue>
2.08

$$$$
>  <sequenceInput>
GCUGUCACCGGUGCUUGGUACGUUAUAUUCAGCCGGUCUGAUGAGUCUCCCGAGAGACGAAACAGC

>  <dataValue>
1.99

$$$$
